TESTED TARGET: T1, Vaccinia Virus, Western Reserve, L1R Protein with C-Terminal Histidine Tag (Vaccinia virus, strain Western Reserve, UniProt P07612)
T1 construct: also called L1 antigen; recombinant L1 antigen; source: obtained through BEI Resources (NR-2625), recombinant from baculovirus
EXPERIMENT: SPR; […] (10 µg/ml, […], dissociation 600 s; […]
PARTICULARS: both partners purified
MEASURE: Kd

Observe how each entry below is paired with its result.
L1-H2 (VHH, llama sdAb of the L1-H2 family; also called sdAb L1-H2) VHH: EVQLQASGGGLVQAGGSLRLSCAASGRTLSTGVMGWFRQLPGKEREFVARITWIAGSSLYADSVKGRFTISRDNTNNTVYLQMNALKPEDTAVYYCAANLAGNSWPYKTPMDYDSWGQGTQVTVSS    1.8 nM
L1-H7 (VHH, llama sdAb of the L1-H7 family; also called sdAb L1-H7) VHH: EVQLQASGGGLVQAGGSLRLSCIASGRAFSTTNMGWFRQAPGKEREFVTRVNWSGGVTSYADSVKGRFTLSRDNTKNTVYLQMNSLKPEDTAVYYCAGSTVWSTDRAHYNYWGRGTQVTVSS    1.5 nM
L1-G2+ (VHH, also called disulfide mutant of L1-G2) VHH: EVQLQASGGGLVQAGGSLRLSCTASGRAFSTTNMGWFRQAPGKEREFVCRVNWSGGVTSYADSVKGRFTCSRDNTKNTVYLQMDSLKPEDTAVYYCAGSTVWSTDRKHYNYWGQGTQVTVSS    1 nM

Endpoint output: Kd of L1-C5 (VHH, llama sdAb of the L1-H7 family; has a single N to Y substitution in framework 3 not seen in other members of the family; also called sdAb L1-C5) VHH: EVQLQASGGGLVQAGGSLRLSCIASGRAFSTTNMGWFRQAPGKEREFVTRVNWSGGVTSYADSVKGRFTLSRDYTKNTVYLQMNSLKPEDTAVYYCAGSTVWSTDRAHYNYWGQGTQVTVSS . Value?
4 nM
